Values from patent US7217726B2

- System: S. aureus ATCC 43300
- assay: Agar Dilution Method MIC, S. aureus ATCC 43300
- Assay type: cell-based
- recordedConditions: Staphylococcus aureus, ATCC43300, Mueller Hinton Agar, 35° Celsius, 20 hours, read-out: Minimum Inhibitory Concentration (MIC in μg/ml)
measuredQuantity: MIC (µg/mL)

INSERT INTO measurements (inputsmiles, testedon, measuredquantity, unitname, observed) VALUES
  ('CC(=S)NC[C@H]1CN(c2ccc(N3CCN(C(=S)Cc4cccs4)CC3)c(F)c2)C(=O)O1', 'S. aureus ATCC 43300', 'MIC', 'µg/mL', 0.5),
  ('CC(=S)NC[C@H]1CN(c2ccc(N3CCN(C(=S)c4ccc(C)s4)CC3)c(F)c2)C(=O)O1', 'S. aureus ATCC 43300', 'MIC', 'µg/mL', 0.5),
  ('CC(=S)NC[C@H]1CN(c2ccc(N3CCN(C(=O)Nc4ccc([N+](=O)[O-])cc4)CC3)c(F)c2)C(=O)O1', 'S. aureus ATCC 43300', 'MIC', 'µg/mL', 0.25),
  ('CC(=S)NC[C@H]1CN(c2ccc(N3CCN(C(=S)c4ncc[nH]4)CC3)c(F)c2)C(=O)O1', 'S. aureus ATCC 43300', 'MIC', 'µg/mL', 0.5),
  ('CC(=S)NC[C@H]1CN(c2ccc(N3CCN(C(=S)C4CC4)CC3)c(F)c2)C(=O)O1', 'S. aureus ATCC 43300', 'MIC', 'µg/mL', 0.25);
